experimentalSystem: Recombinant full-length human PDE2A protein (Homo sapiens)
Construct: Recombinant full-length human PDE2A protein; GST (N); host or cells: insect Sf9 cells (baculovirus)
Sequence (O00408 whole entry): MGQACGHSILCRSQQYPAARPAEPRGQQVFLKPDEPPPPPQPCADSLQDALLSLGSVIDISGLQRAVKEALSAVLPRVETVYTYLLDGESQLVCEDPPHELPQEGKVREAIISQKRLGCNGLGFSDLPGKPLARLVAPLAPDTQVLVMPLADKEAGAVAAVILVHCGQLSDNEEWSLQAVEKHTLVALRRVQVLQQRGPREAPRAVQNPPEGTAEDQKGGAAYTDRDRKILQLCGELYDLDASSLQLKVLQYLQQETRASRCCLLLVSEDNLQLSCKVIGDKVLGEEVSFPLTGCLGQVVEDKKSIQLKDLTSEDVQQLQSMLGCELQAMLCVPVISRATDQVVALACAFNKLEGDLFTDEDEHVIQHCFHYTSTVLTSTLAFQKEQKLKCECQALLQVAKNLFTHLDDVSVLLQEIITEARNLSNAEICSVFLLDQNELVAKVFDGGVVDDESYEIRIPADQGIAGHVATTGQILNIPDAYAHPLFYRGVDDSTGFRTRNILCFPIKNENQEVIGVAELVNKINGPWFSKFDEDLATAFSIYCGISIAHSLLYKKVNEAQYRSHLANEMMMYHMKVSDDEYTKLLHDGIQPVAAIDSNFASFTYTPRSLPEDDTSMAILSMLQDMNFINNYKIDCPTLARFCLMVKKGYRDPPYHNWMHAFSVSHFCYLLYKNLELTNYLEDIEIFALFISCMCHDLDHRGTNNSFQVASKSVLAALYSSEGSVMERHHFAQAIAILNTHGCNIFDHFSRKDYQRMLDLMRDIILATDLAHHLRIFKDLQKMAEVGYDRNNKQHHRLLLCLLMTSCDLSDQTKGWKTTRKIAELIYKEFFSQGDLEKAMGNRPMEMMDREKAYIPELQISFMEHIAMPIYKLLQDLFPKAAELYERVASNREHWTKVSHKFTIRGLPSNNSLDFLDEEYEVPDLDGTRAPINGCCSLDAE
assayMethodText: In vitro PDE2 phosphodiesterase inhibitory activity (fluorescence polarization, Transcreener AMP2/GMP2)
Assay type: biochemical
experimentalContext: human PDE2A, substrate 1 μM cGMP, fluorescence polarization; read-out: PDE2 phosphodiesterase inhibitory activity
pIC50: −log10 of the molar value.
Reported pIC50 values for a set of compounds

Recorded pIC50, per entry:
Need pIC50 of C[C@@H]1CC(CCn2c(=O)c3c(ncn3CC3CC3)n(C)c2=O)C[C@@H](C)O1 (some centres unmarked) , thanks.
4.30 to 5.00

# iterate: `Cn1c(=O)n(CC2(C)COC2)c(=O)c2c1cnn2CC1CC1`
4.30 to 5.00

Subsequent entry: `CCC1(Cn2c(=O)c3c(ncn3C)n(C)c2=O)COC1`
4.30 to 5.00

# iterate: CCC1(Cn2c(=O)c3c(ncn3C)n(C)c2=O)CCOCC1 [Example 12 Isomer 1]
4.30 to 5.00

---
Could you tell me which pIC50 is on file for C[C@H]1CC(CCn2c(=O)c3c(ncn3C)n(C)c2=O)C[C@H](C)O1 (some centres unmarked) ?
4.30 to 5.00

Another compound to check: C[C@@H]1CC(CCn2c(=O)c3c(ncn3CC(F)(F)F)n(C)c2=O)C[C@@H](C)O1 (some centres unmarked)
4.30 to 5.00

And what about the compound COC1CCC(Cn2c(=O)c3c(ncn3C)n(C)c2=O)CC1 (centres unmarked) ?
4.30 to 5.00
